Assay: Partition coefficient (logP)
Format: physicochemical
Details: octanol/water
Output 1 for records whose logP is lower than 3, -1 for records at or above 3.

Consider the following illustrative entries.
• CCCC12CC3CC(CC(N)(C3)C1)C2 = -1
• NC12CC3CC(CC(C3)C1)C2 [AMANTADINE] = 1
• CCC12CC3CC(N)(C1)CC(CC)(C3)C2 = -1
• CC12CC3(C)CC(C)(C1)CC(N)(C2)C3 = -1

In the following, a different compound is considered.
Answer whether the compound CCC12CC3CC(CC(N)(C3)C1)C2 has logP strictly less than 3
-1

These data points were gathered from ChEMBL document CHEMBL1121932.
